- STUDY_TARGET: HLA-B*51:01
- PROTOCOL_NOTES: IEDB peptide-MHC binding, purified MHC/competitive/fluorescence; filed as Kd, often an IC50 or EC50 that approximates it; bounds were set here for any values at or beyond the usual limits of such assays
- CONDITIONS: source organism: Araucaria virus
MEASURED_PARAMETER: Kd

**Query** Suppose we examine the sequence GVPELGAFF ; what Kd value has been reported?
**Result** ≥ 20 µM

----------
- STUDY_TARGET: HLA-A*02:16
- PROTOCOL_NOTES: IEDB peptide-MHC binding, purified MHC/direct/fluorescence; filed as Kd, often an IC50 or EC50 that approximates it; bounds were set here for any values at or beyond the usual limits of such assays
- CONDITIONS: source organism: Araucaria virus
MEASURED_PARAMETER: Kd

**Query** Form field: Kd recorded for GVPELGAFF with HLA-A*02:16 (enter value)
**Result** ≥ 20 µM
